All figures here come from ChEMBL document CHEMBL5029183.

species: Rattus norvegicus; assay: Selectivity index, ratio of Ki for displacement of [3H]-U69593 from KOR in Wistar rat brain membranes to Ki for displacement of [3H]DAMGO from MOR in Wistar rat brain membranes; assay type: cell membranes
Measurement name: Ratio Ki

Notebook: N=C(N)NCCC[C@@H](NC(=O)[C@@H](CCCNC(=N)N)NC(=O)CNC(=O)[C@@H]1CSSC[C@H](NC(=O)[C@@H](N)Cc2ccc(O)cc2)C(=O)N[C@@H](Cc2c[nH]c3ccccc23)C(=O)N[C@@H](Cc2ccccc2)C(=O)N1)C(=O)O , Ratio Ki read as > 249

Notebook: Cc1cc(O)cc(C)c1C[C@H](N)C(=O)N[C@H]1CSSC[C@@H](C(=O)NCC(=O)N[C@H](CCCNC(=N)N)C(=O)N[C@H](CCCNC(=N)N)C(=O)O)NC(=O)[C@H](Cc2ccc(Cl)cc2)NC(=O)[C@H](Cc2c[nH]c3ccccc23)NC1=O , Ratio Ki read as 548

Notebook: N=C(N)NCCC[C@@H](NC(=O)[C@@H](CCCNC(=N)N)NC(=O)CNC(=O)[C@@H]1CSSC[C@H](NC(=O)[C@@H](N)Cc2ccc(O)cc2)C(=O)N[C@@H](Cc2ccccc2)C(=O)N[C@@H](Cc2ccccc2)C(=O)N1)C(=O)O , Ratio Ki read as > 221

Notebook: N=C(N)NCCC[C@@H](NC(=O)[C@@H](CCCNC(=N)N)NC(=O)CNC(=O)[C@@H]1CSSC[C@H](NC(=O)[C@@H](N)Cc2ccc(O)cc2)C(=O)N[C@@H](Cc2ccccc2)C(=O)N[C@@H](Cc2ccc(Cl)cc2)C(=O)N1)C(=O)O , Ratio Ki read as > 149

Notebook: N=C(N)NCCC[C@@H](NC(=O)[C@@H](CCCNC(=N)N)NC(=O)CNC(=O)[C@@H]1CSSC[C@H](NC(=O)[C@@H](N)Cc2ccc(O)cc2)C(=O)N[C@@H](Cc2c[nH]c3ccccc23)C(=O)N[C@@H](Cc2ccc(Cl)cc2)C(=O)N1)C(=O)O , Ratio Ki read as > 145

Notebook: Cc1cc(O)cc(C)c1C[C@H](N)C(=O)N[C@H]1CSSC[C@@H](C(=O)NCC(=O)N[C@H](CCCNC(=N)N)C(=O)N[C@H](CCCNC(=N)N)C(=O)O)NC(=O)[C@H](Cc2ccc(Cl)cc2)NC(=O)[C@H](Cc2ccccc2)NC1=O , Ratio Ki read as 710

---

Would you kindly list Time for each of these compounds?
experiment: Toxicity in Kunming mouse model assessed as conditioned place preference time at 20 nmol, icv; conditions: in vivo, icv_or_intrathecal
The reply should contain only the number, in s.

Notebook: Cc1cc(O)cc(C)c1C[C@H](N)C(=O)N[C@H]1CSSC[C@@H](C(=O)NCC(=O)N[C@H](CCCNC(=N)N)C(=O)N[C@H](CCCNC(=N)N)C(=O)O)NC(=O)[C@H](Cc2ccc(Cl)cc2)NC(=O)[C@H](Cc2c[nH]c3ccccc23)NC1=O , Time read as 447

Notebook: Cc1cc(O)cc(C)c1C[C@H](N)C(=O)N[C@H]1CSSC[C@@H](C(=O)NCC(=O)N[C@H](CCCNC(=N)N)C(=O)N[C@H](CCCNC(=N)N)C(=O)O)NC(=O)[C@H](Cc2ccc(Cl)cc2)NC(=O)[C@H](Cc2ccccc2)NC1=O , Time read as 450

Notebook: CN1CC[C@]23c4c5ccc(O)c4O[C@H]2[C@@H](O)C=C[C@H]3[C@H]1C5 [MORPHINE] , Time read as 451

Notebook: NC(=O)[C@H](Cc1ccccc1)NC(=O)[C@H](Cc1c[nH]c2ccccc12)NC(=O)[C@@H]1CCCN1C(=O)[C@@H](N)Cc1ccc(O)cc1 [ENDOMORPHIN-1] , Time read as 455

Notebook: NC(=O)[C@H](Cc1ccccc1)NC(=O)[C@H](Cc1ccccc1)NC(=O)[C@@H]1CCCN1C(=O)[C@@H](N)Cc1ccc(O)cc1 [ENDOMORPHIN 2] , Time read as 449
